System Tested: Hypoxia-inducible factor 1-alpha (Mus musculus) (UniProt Q61221)
Sequence (Q61221 whole entry): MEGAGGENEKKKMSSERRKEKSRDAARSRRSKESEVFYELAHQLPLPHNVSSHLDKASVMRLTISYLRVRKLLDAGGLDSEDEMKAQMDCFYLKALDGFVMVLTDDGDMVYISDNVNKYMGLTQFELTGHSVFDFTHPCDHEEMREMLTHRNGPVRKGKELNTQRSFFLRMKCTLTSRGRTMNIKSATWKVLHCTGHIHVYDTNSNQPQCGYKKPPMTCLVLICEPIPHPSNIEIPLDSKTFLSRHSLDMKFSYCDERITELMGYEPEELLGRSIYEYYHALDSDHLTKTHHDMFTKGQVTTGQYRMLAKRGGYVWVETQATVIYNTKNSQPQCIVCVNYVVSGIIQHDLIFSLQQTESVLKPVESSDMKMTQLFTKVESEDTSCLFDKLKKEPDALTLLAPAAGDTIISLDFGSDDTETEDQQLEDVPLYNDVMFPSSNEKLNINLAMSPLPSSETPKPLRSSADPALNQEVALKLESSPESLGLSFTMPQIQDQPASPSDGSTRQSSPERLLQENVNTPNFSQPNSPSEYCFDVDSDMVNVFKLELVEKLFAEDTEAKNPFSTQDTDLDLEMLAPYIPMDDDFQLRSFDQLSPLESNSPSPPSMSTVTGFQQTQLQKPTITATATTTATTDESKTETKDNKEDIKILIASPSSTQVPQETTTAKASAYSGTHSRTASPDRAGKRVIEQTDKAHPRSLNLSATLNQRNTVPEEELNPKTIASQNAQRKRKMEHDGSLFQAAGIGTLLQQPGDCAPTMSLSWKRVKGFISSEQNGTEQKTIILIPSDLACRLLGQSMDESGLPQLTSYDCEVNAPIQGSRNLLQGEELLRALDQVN
Assay Details: Induction of stabilization of HIF-1alpha in mouse NIH-3T3-HIF/Luc cells assessed as activation of HRE by measuring […] at 500 uM incubated for 24 hrs by Bright-glo luciferase assay
Type: cell-based
Readout Kind: fold change (FC)

// known answers, use as guide
COC(=O)OC(C)OC(=O)CNC(=O)C(=O)OC (configuration not stated) | < 2
COC(=O)C(=O)NCC(=O)OC(C)OC(=O)OC(C)C (configuration not stated) | < 2
COC(=O)C(=O)NCC(=O)OCOC(=O)C(C)C | < 1
COC(=O)C(=O)NCC(=O)OCOC(=O)c1ccccc1 | < 2
COC(=O)C(=O)NCC(=O)OC(C)OC(=O)Oc1ccccc1 (configuration not stated) | < 2

Ask | Please report the recorded fold change (FC) for CCC(=O)OCOC(=O)CNC(=O)C(=O)OC .
Reply | < 1

Ask | Please report the recorded fold change (FC) for COC(=O)C(=O)NCC(=O)OCOC(=O)C(C)(C)C .
Reply | < 1

Ask | Please report the recorded fold change (FC) for COC(=O)C(=O)NCC(=O)OC(C)OC(=O)C(C)(C)C (configuration not stated) .
Reply | < 2

Ask | Please report the recorded fold change (FC) for COC(=O)C(=O)NCC(=O)OC(C)OC(=O)C(C)C (configuration not stated) .
Reply | < 2

Ask | Please report the recorded fold change (FC) for CCC(=O)OC(C)OC(=O)CNC(=O)C(=O)OC (configuration not stated) .
Reply | < 2

Ask | Please report the recorded fold change (FC) for CCOC(=O)OCOC(=O)CNC(=O)C(=O)OC .
Reply | < 1

Ask | Please report the recorded fold change (FC) for CCOC(=O)OC(C)OC(=O)CNC(=O)C(=O)OC (configuration not stated) .
Reply | < 2
